# system-under-test: HLA-A*02:01 (human)
# assay-info: UV peptide exchange; HLA class I ELISA
# test-parameters: remark: other sources report otherwise
property: exchange rate with Pos (%)

# binder, output-unit, observed-measurement
records = [
    ("YLRRQKRLK (here or on the partner: biotinylated heavy chain) [P60 9-mer … (FOXA1.p.F266L)]", "%", 7.9),
    ("QLIAMDSAI (here or on the partner: biotinylated heavy chain) [P22 9-mer … (SLC45A3-ELK4 fusion)]", "%", 46.9),
    ("FLFLLLPLS (here or on the partner: biotinylated heavy chain) [P87 9-mer … (AR-Intron)]", "%", 64),
    ("RVGNCKHLK (here or on the partner: biotinylated heavy chain) [P82 9-mer … (AR-V7)]", "%", 6.3),
]
